Biological target: Progesterone receptor (Homo sapiens)
Sequence (P06401 whole entry): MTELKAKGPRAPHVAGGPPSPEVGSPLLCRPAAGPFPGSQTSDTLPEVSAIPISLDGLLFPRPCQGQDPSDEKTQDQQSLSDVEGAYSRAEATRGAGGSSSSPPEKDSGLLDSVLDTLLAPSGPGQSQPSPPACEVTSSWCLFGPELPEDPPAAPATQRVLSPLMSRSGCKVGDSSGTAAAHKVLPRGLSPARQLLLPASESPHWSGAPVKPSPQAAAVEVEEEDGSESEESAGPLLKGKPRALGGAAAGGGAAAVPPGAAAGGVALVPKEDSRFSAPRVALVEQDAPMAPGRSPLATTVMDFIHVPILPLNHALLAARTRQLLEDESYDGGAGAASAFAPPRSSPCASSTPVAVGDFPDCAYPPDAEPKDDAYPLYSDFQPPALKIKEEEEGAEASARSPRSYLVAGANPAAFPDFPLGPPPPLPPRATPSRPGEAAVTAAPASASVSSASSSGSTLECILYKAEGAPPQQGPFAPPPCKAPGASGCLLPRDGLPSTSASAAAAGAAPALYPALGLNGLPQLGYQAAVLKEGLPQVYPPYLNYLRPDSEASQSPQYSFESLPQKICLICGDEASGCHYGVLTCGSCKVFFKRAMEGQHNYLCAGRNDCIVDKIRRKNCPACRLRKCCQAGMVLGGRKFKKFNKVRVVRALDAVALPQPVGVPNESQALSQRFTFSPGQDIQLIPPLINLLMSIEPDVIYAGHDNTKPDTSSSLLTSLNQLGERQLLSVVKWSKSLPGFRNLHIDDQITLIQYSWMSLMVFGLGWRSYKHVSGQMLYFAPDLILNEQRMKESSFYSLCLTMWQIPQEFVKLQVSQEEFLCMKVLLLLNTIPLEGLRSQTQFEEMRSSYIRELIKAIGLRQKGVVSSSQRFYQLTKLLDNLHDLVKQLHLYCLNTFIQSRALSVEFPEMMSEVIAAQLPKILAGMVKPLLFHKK
property: pIC50
Formally, pIC50 is defined as -log10 of the concentration c, with c in mol/L.

Request: Can you look up the measured pIC50 of Cc1c(N[C@@H](c2nnc(-c3ccc(C#N)cc3)o2)[C@H](C)O)ccc(C#N)c1Cl for me?
Result: 6.12

====

Assay: Half life in human microsomes
Assay type: ADME, Microsome
property: half-life

Request: Can you look up the measured half-life of Cc1c(N[C@@H](c2nnc(-c3ccc(C#N)cc3)o2)[C@H](C)O)ccc(C#N)c1Cl for me?
Result: > 120 min

====

Test: Half life in monkey microsomes
Format: ADME, Macaca mulatta, Microsome
Details: rhesus monkey
property: half-life

Request: Can you look up the measured half-life of Cc1c(N[C@@H](c2nnc(-c3ccc(C#N)cc3)o2)[C@H](C)O)ccc(C#N)c1Cl for me?
Result: > 2 h

====

Assay: Oral bioavailability in rat
Assay type: ADME, organism-based
Conditions: in vivo
property: bioavailability (%)
Number in %, nothing else.

Request: Can you look up the measured bioavailability of Cc1c(N[C@@H](c2nnc(-c3ccc(C#N)cc3)o2)[C@H](C)O)ccc(C#N)c1Cl for me?
Result: 27

====

Assay: Oral bioavailability in monkey
Format: ADME, organism-based, Macaca mulatta
Conditions: rhesus monkey, in vivo
property: bioavailability (%)
Number in %, nothing else.

Request: Can you look up the measured bioavailability of Cc1c(N[C@@H](c2nnc(-c3ccc(C#N)cc3)o2)[C@H](C)O)ccc(C#N)c1Cl [RAD-140] for me?
Result: 65

====

Experiment: Half life in rat microsomes
Assay type: ADME, Microsome
property: half-life

Request: Can you look up the measured half-life of Cc1c(N[C@@H](c2nnc(-c3ccc(C#N)cc3)o2)[C@H](C)O)ccc(C#N)c1Cl for me?
Result: > 120 min

====

Target: Androgen receptor (Homo sapiens)
Sequence (P10275 whole entry): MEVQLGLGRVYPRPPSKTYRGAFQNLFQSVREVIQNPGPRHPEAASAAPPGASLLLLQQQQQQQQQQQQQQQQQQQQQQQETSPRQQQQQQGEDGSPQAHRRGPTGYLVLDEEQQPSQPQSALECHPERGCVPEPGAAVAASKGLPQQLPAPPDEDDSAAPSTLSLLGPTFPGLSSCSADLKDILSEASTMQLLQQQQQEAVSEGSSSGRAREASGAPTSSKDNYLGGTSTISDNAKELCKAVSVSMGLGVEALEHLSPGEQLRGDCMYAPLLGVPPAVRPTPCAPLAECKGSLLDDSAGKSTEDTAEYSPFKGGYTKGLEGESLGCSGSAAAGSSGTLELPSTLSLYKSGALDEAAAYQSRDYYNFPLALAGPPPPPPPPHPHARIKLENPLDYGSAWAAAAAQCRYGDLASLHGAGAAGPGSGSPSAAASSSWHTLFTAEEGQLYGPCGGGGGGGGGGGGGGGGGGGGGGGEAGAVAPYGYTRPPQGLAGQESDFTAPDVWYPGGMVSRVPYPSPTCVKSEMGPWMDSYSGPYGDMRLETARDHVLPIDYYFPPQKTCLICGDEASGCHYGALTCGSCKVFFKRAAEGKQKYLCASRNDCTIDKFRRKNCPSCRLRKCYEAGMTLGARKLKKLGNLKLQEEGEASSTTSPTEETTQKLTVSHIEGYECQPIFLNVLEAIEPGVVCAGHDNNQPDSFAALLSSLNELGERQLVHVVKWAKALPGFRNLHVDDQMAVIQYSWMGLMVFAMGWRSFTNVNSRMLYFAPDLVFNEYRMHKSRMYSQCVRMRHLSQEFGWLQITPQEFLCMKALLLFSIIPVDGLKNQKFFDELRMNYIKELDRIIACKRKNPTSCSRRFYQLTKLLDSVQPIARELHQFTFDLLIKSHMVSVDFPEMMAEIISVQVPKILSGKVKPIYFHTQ
property: Ki
Kindly write the number and append the unit.

Request: Item Cc1c(N[C@@H](c2nnc(-c3ccc(C#N)cc3)o2)[C@H](C)O)ccc(C#N)c1Cl [RAD-140] with Androgen receptor (Homo sapiens) - Ki?
Result: 7 nM
